Cited source: PubChem BioAssay (EPA / NIEHS)

read-out: Human Leukocyte Antigen - DR isotype (HLADR), HLA-DRA (gene 3122); experiment: BSK_CASM3C_HLADR: BioMAP Diversity Plus: CASM3C Assay for Human Leukocyte Antigen - DR isotype (HLADR) Biomarker Activity (AID 2283043); conditions: primary human coronary artery smooth muscle cells; actives raise or lower the signal;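 also: cell-surface HLA-DR protein level quantified by ELISA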
Active and inactive are the calls of the source. The calls were made as follows: active = hit-call score of the fitted dose curve at least 0.9, where 1 is the maximum; inactive = score below 0.9.
Respond with a class label; see true for active, false for inactive

# count of solved cases: 4
Query :: Recorded call for Clc1cc(Cl)c(-c2c(Cl)c(Cl)cc(Cl)c2Cl)cc1Cl ?
Result :: false

Query :: Hi team, can someone confirm the assay call for c1ccc(Oc2ccccc2)cc1 ?
Result :: false

Query :: Which outcome was entered for the compound C=C(C)C(=O)OCC(CC)(COC(=O)C(=C)C)COC(=O)C(=C)C in this test?
Result :: false

Query :: Hi, sorry to bother you, what did the test record for C[C@@H]1CCN(C(=O)[C@H](CCCN=C(N)N)NS(=O)(=O)c2cccc3c2NC[C@H](C)C3)[C@@H](C(=O)O)C1 ?
Result :: false

More entries:
Query :: Tell me the assay call for CN(C)C(=S)SC(=S)N(C)C please.
Result :: true

----------
assay: ATG_NFI_CIS: Attagene CIS-FACTORIAL HepG2 Assay for human Nuclear Factor I (NFI) (AID 2282989); conditions: HepG2 cis-regulatory reporter, NFI response element transcription; actives raise or lower the signal
The source made the active and inactive calls. How the source made its calls: active means hit-call score of the fitted dose curve at least 0.9, where 1 is the maximum; inactive means score below 0.9.
Use one of these outcomes when replying: active, inactive

Query :: Hello, I am checking results. What call was entered for CCCCCCCCc1ccc(S(=O)(=O)O)cc1 ?
Result :: active

Query :: # fetch the recorded call for CCCCC(CC)(CO)CO here
Result :: inactive

Query :: // outcome(item) with item = COc1ccc(OC)c(N=Nc2c(O)ccc3ccccc23)c1
Result :: inactive

Query :: Record request — test call for CCCCCCCCCCCCN1CCCCCC1=O
Result :: inactive

----------
assay: ATG_NRF2_ARE_CIS: Attagene CIS-FACTORIAL HepG2 Assay for human Nuclear Factor Erythroid 2 Related Factor 2 (NFR2) response to Antioxidant Response Elements (ARE) (AID 2282992); conditions: HepG2 Attagene ARE/NRF2 reporter, transcription factor activity; actives raise or lower the signal
Activity calls are given as the source filed them. The calls were made as follows: active = hit-call score of the fitted dose curve at least 0.9, where 1 is the maximum; inactive = score below 0.9.
Respond with a class label; see Yes = active, No = inactive

Query :: // param item: CS(C)=O ; yields the recorded call
Result :: No

Query :: Dear colleague, could you share the recorded outcome for CCCCC1CCC(O)CC1 (configuration not stated) when you have a moment?
Result :: No

Others:
Query :: Please indicate how the test categorized CCOC(=O)c1ccc(N)cc1 .
Result :: No

Query :: Name the outcome recorded for CCCCCCCCCCCCCCCC(=O)OC/C=C(C)/C=C/C=C(C)/C=C/C1=C(C)CCCC1(C)C in the assay.
Result :: Yes

----------
read-out: Interleukin-8 (IL8), CXCL8 (gene 3576); test: BSK_SAg_IL8: BioMAP Diversity Plus: SAg Assay for Interleukin-8 (IL8) Biomarker Activity (AID 2283094); settings: primary human HUVEC with PBMC; actives raise or lower the signal
Calls of active or inactive are those of the source. Rule for the calls: active = hit-call score of the fitted dose curve at least 0.9, where 1 is the maximum; inactive = score below 0.9.
Write down the outcome that applies. Available outcomes: 1 (yes) (active), 0 (no) (inactive)

Query :: Returns: the outcome recorded for CN(C)C(=O)Nc1ccc(Oc2ccc(Cl)cc2)cc1 in this assay.
Result :: 0 (no)

Query :: Can you look up the reported call for C[C@@H]1CCN(C(=O)[C@H](CCCN=C(N)N)NS(=O)(=O)c2cccc3c2NC[C@H](C)C3)[C@@H](C(=O)O)C1 for me?
Result :: 0 (no)

Query :: Hey, what did the test say about C=C(C)C(=O)OCCOCCOCCOCCOC(=O)C(=C)C ?
Result :: 0 (no)

Query :: Test call for this compound, please: CN(C)C(=S)SC(=S)N(C)C
Result :: 0 (no)

Query :: Hi, do you know how CC(CN=Cc1ccccc1O)N=Cc1ccccc1O (stereo unspecified) came out in this test?
Result :: 0 (no)

Query :: So what was the verdict on CCN(CC)C(=O)N(CC)CC in this test?
Result :: 0 (no)

Others:
Query :: Hey, what did the test say about CC1(C)CCC[C@]2(C)[C@H]3CCO[C@]3(C)CC[C@@H]12 ?
Result :: 0 (no)

Query :: Hello, I am checking results. What call was entered for CCCCCCC(CO)CCCC (stereo unspecified) ?
Result :: 0 (no)

Query :: Which result was noted for this compound in the test: CC(=O)C1(C)CC2=C(CCCC2(C)C)CC1C (stereo unspecified)
Result :: 1 (yes)

Query :: Record lookup: outcome of this test for C1=CC2C3C=CC(C3)C2C1 (stereo unspecified) ?
Result :: 0 (no)

Query :: Entry CC(=O)c1c(C)c([N+](=O)[O-])c(C(C)(C)C)c([N+](=O)[O-])c1C : call = ?
Result :: 0 (no)

Query :: Could you check what this test reported for CC(=O)Nc1ccc(C(=O)CCl)cc1 ?
Result :: 1 (yes)

Query :: Kindly provide the recorded test outcome for the following compound: O=C(Nc1ccc2c(O)c(N=Nc3ccc(N=Nc4ccc(S(=O)(=O)O)cc4)cc3)c(S(=O)(=O)O)cc2c1)c1ccccc1
Result :: 0 (no)

Query :: For this compound, state the assay outcome: c1ccc2cc(Nc3ccc(Nc4ccc5ccccc5c4)cc3)ccc2c1
Result :: 0 (no)

Query :: Write down the call the test reported for this compound. Item: CC(C=O)Cc1ccc(C(C)(C)C)cc1 (stereo unspecified)
Result :: 0 (no)

Query :: Just curious, what result did CCCCCC(C=O)=Cc1ccccc1 get here?
Result :: 0 (no)
